System: Escherichia coli MB 2884
Assay: liquid turbidimetric microtiter MIC determination in broth media
Type: cell-based
Details: MB2884, Table II, MIC, read-out: In vitro Activity
metric_name: MIC
Kindly write the number and append the unit.

Worked cases, MIC given:
INSERT INTO measurements (compound, assay_value) VALUES
  ('CC[C@H]1OC(=O)[C@H](C)[C@@H](O[C@H]2C[C@@](C)(OC)[C@@H](N)[C@H](C)O2)[C@H](C)[C@@H](O[C@@H]2O[C@H](C)C[C@H](N(C)C)[C@H]2O)[C@](C)(O)C[C@@H](C)N(C)C[C@H](C)[C@@H](O)[C@]1(C)O', '0.12 µg/mL'),
  ('CC[C@H]1OC(=O)[C@H](C)[C@@H](O[C@H]2C[C@@](C)(OC)[C@H](N)[C@H](C)O2)[C@H](C)[C@@H](O[C@@H]2O[C@H](C)C[C@H](N(C)C)[C@H]2O)[C@](C)(O)C[C@@H](C)N(C)C[C@H](C)[C@@H](O)[C@]1(C)O', '0.25 µg/mL'),
  ('CC[C@H]1OC(=O)[C@H](C)[C@@H](O[C@H]2C[C@@](C)(OC)C(N)[C@H](C)O2)[C@H](C)[C@@H](O[C@@H]2O[C@H](C)C[C@H](N(C)C)[C@H]2O)[C@](C)(O)C[C@@H](C)N(C)C[C@H](C)[C@@H](O)[C@]1(C)O (stereo partly shown)', '0.12 µg/mL');

Turning now to a further compound:
# input Dear colleague, I am looking for the recorded MIC of the following compound: CC[C@H]1OC(=O)[C@H](C)[C@@H](O[C@H]2C[C@@](C)(OC)[C@@H](O)[C@H](C)O2)[C@H](C)[C@@H](O[C@@H]2O[C@H](C)C[C@H](N(C)C)[C@H]2O)[C@](C)(O)C[C@@H](C)C(=O)[C@H](C)[C@@H](O)[C@]1(C)O
# output 16 µg/mL
